Would you kindly list PBM binding z-score for each of these sequences?
- Tested on: PXR:RXRa (NR concentration 270 nM, RXRa partner concentration 90 nM)
- experimental.protocol: PBM binding z-score (relative to random genomic background probes); higher = stronger binding; sequences stand for … in GC…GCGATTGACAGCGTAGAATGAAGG

# primary.sequence, result
measured = [
    ("AGAACGAGGGCACACTGAGTTGATAGCAGAGTAG", 1.29),
]

# return PBM binding z-score for each item in the list
1. GCGACTCGGGCAAAGCAGGTTACCATAAGGTTGG
2. CCGATTAGGTTATGGGGCATTCAGGCAACGGTGA
3. TGAATGAGCTTAAAGATCAGGGAACGTGGCGTCG
4. ATCTCTAGGTAACAAGTTCACTGAAAGAGAGGAC
5. CCGCGGAGGACAACAGGAGGTCAGAGCTGCCAGA
6. AGAATGAGGCTATACGTAGATCAGGGAAGAAAGT

[-0.339, 0.0495, -0.508, 2.83, 2.44, -0.274]

Could you report PBM binding z-score for every entry in the following list?
1. ACTAGCAGGCCAAGTTTGGCTCACTCAAACAAAG
2. ATATGTAGGTTAGCTGGGGTGATTCAGACTAGGC
3. ATGTCTAGGTAACCAAGTTCAGTGAATGCCGAAC
4. CCTAGTTGCTCAGGAGGTCACACACCGGATATGA
5. TCTAGTTGGTCAAAGGTGACACACTCGAAATGCG
6. TTACCAAGGTGAGCTGAGGTCGTTGAGCCAACTC
7. CCTTACGGGTCACTCCAAGTTATAGCATCGGAGT
8. TCATATCGGTAAACAGGTGAAAGTCCGTAAGTTA

-0.576
1.55
2
4.39
2.14
5.03
2.57
0.657
